# testedSystem: human PDE5 (Homo sapiens)
# measurementProtocol: PDE5 inhibition, IMAP fluorescence polarization phosphodiesterase assay
# Format: biochemical
# testConditions: read-out: PDE5A inhibition IC50 μM; substrate cAMP (as printed in sub-head)
quantityMeasured: IC50 (µM)
The reply should be a number in µM, with the unit left off.

Query: Report measured IC50 on human PDE5 (Homo sapiens); entry: CCCCN1CC(=O)N2[C@H](c3ccc(Br)cc3)c3[nH]c4ccccc4c3C[C@@H]2C1=O
Response: 0.009

---

# testedSystem: human PDE5 (Homo sapiens, UniProt O76074)
# measurementProtocol: PDE5 inhibition, IMAP fluorescence polarization phosphodiesterase assay
# Format: biochemical
# testConditions: read-out: % PDE5 inhibition at 10 μM
quantityMeasured: inhibition at 10 µM

# compound, testedSystem, dataValue
measured = [
    ("CC(C)(C)N1C(=O)[C@H]2Cc3c([nH]c4ccccc34)[C@H](c3ccc(Br)cc3)N2C1=O", "human PDE5 (Homo sapiens, UniProt O76074)", "78%"),
    ("CCCCN1CC(=O)N2[C@@H](c3ccc(Br)cc3)c3[nH]c4ccccc4c3C[C@H]2C1=O", "human PDE5 (Homo sapiens, UniProt O76074)", "80%"),
    ("CCCCN1C(=O)[C@H]2Cc3c([nH]c4ccccc34)[C@@H](c3ccc(Br)cc3)N2C1=O", "human PDE5 (Homo sapiens, UniProt O76074)", "98.7%"),
    ("CN1CC(=O)N2[C@@H](c3ccc(Br)cc3)c3[nH]c4ccccc4c3C[C@@H]2C1=O", "human PDE5 (Homo sapiens, UniProt O76074)", "94%"),
    ("CCN1C(=O)[C@H]2Cc3c([nH]c4ccccc34)[C@@H](c3ccc(Br)cc3)N2C1=O", "human PDE5 (Homo sapiens, UniProt O76074)", "94.4%"),
    ("CCN1C(=O)[C@@H]2Cc3c([nH]c4ccccc34)[C@@H](c3ccc(Br)cc3)N2C1=O", "human PDE5 (Homo sapiens, UniProt O76074)", "101%"),
    ("CCCCN1C(=O)[C@@H]2Cc3c([nH]c4ccccc34)[C@@H](c3ccc(Br)cc3)N2C1=O", "human PDE5 (Homo sapiens, UniProt O76074)", "106%"),
    ("CN1CC(=O)N2[C@@H](c3ccc(Br)cc3)c3[nH]c4ccccc4c3C[C@H]2C1=O", "human PDE5 (Homo sapiens, UniProt O76074)", "87%"),
]

Query: Please supply the value of reported inhibition at 10 µM for the item CC(C)(C)N1CC(=O)N2[C@H](c3ccc(Br)cc3)c3[nH]c4ccccc4c3C[C@H]2C1=O
Response: 21%

Query: # return recorded inhibition at 10 µM for entry CC(C)(C)N1CC(=O)N2[C@H](c3ccc(Br)cc3)c3[nH]c4ccccc4c3C[C@@H]2C1=O
Response: 30%

Query: // Input: CCC(C)N1C(=O)[C@@H]2Cc3c([nH]c4ccccc34)[C@@H](c3ccc(Br)cc3)N2C1=O (stereo partly shown) . Output its inhibition at 10 µM only.
Response: 92%

---

# testedSystem: PDE11A (Homo sapiens, UniProt Q9HCR9)
# Sequence (Q9HCR9 whole entry): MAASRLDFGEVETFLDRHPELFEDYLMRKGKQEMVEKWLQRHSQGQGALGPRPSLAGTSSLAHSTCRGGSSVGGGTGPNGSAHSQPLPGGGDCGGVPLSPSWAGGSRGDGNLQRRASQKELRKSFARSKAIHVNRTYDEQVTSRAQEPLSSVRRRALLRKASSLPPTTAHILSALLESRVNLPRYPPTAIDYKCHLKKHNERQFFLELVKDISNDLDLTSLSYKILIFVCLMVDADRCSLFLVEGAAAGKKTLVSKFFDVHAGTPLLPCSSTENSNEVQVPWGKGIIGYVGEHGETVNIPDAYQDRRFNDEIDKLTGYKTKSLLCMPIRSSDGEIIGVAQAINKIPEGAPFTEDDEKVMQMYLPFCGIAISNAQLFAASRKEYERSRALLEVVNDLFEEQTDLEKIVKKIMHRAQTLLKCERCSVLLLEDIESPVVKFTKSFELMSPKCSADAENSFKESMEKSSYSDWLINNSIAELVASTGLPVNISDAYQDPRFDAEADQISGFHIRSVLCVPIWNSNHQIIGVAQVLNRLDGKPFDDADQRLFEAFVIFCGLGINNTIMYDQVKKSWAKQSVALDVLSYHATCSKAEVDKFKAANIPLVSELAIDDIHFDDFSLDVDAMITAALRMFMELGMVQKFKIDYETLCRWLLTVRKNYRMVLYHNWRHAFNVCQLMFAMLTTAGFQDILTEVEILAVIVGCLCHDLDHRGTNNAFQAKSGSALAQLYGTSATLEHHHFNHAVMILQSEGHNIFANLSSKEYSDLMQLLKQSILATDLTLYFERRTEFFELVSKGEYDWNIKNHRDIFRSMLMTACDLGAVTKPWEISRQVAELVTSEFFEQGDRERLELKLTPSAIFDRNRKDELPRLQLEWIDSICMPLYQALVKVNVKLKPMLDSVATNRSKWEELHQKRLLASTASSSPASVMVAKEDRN
# measurementProtocol: PDE11A inhibition, IMAP fluorescence polarization assay
# Type: biochemical
# testConditions: PDE11A inhibition IC50 μM, substrate cAMP
Recorded measurements of IC50, one per entry
Field: numeric (µM). Do not append units.

# structureString, testedSystem, unitOfMeasure, dataValue
data = [
    ("CN1CC(=O)N2[C@H](c3ccc(Br)cc3)c3[nH]c4ccccc4c3C[C@H]2C1=O", "PDE11A (Homo sapiens, UniProt Q9HCR9)", "µM", 1.3),
    ("CN1CC(=O)N2[C@H](c3ccc(Br)cc3)c3[nH]c4ccccc4c3C[C@@H]2C1=O", "PDE11A (Homo sapiens, UniProt Q9HCR9)", "µM", 0.6),
    ("CCN1CC(=O)N2[C@H](c3ccc(Br)cc3)c3[nH]c4ccccc4c3C[C@@H]2C1=O", "PDE11A (Homo sapiens, UniProt Q9HCR9)", "µM", 0.3),
]

Now look at this entry.
Query: Quick one: give measured IC50 for CCN1C(=O)[C@@H]2Cc3c([nH]c4ccccc34)[C@@H](c3ccc(Br)cc3)N2C1=O
Response: 44

---

# testedSystem: PDE2A (Homo sapiens, UniProt O00408)
# Sequence (O00408 whole entry): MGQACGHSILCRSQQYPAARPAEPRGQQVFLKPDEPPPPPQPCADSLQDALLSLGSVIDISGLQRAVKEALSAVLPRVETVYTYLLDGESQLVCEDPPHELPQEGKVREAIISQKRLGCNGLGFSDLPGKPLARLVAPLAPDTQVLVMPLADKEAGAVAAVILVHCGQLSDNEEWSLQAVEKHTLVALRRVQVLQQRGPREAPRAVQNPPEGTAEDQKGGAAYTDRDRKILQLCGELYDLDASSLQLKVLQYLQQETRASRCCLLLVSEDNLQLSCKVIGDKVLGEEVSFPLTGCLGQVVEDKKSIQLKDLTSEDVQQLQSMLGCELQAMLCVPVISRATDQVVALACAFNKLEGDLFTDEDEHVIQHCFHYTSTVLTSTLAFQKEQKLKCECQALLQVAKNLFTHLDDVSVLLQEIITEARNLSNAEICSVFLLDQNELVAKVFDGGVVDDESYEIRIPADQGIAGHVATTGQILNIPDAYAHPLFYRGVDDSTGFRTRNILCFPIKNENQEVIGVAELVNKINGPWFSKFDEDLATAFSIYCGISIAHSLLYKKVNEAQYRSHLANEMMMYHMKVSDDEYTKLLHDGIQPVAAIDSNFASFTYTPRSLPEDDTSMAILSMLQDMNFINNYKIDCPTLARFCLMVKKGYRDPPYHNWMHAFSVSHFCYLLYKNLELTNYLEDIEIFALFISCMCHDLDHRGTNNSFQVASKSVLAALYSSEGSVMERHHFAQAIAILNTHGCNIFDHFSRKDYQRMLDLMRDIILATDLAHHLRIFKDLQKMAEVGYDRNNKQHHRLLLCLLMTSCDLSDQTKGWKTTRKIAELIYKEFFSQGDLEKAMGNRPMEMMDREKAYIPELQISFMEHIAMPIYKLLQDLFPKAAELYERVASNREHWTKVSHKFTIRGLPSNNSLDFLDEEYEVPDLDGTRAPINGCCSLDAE
# measurementProtocol: PDE2A inhibition, IMAP fluorescence polarization assay
# Type: biochemical
Reported IC50 values for a set of compounds

# compound, testedSystem, IC50
records = [
    ("CCN1CC(=O)N2[C@H](c3ccc(Br)cc3)c3[nH]c4ccccc4c3C[C@@H]2C1=O [Compound 29]", "PDE2A (Homo sapiens, UniProt O00408)", "> 50 µM"),
    ("CCN1C(=O)[C@@H]2Cc3c([nH]c4ccccc34)[C@@H](c3ccc(Br)cc3)N2C1=O [Compound 8]", "PDE2A (Homo sapiens, UniProt O00408)", "> 50 µM"),
    ("CN1CC(=O)N2[C@H](c3ccc(Br)cc3)c3[nH]c4ccccc4c3C[C@@H]2C1=O [Compound 25]", "PDE2A (Homo sapiens, UniProt O00408)", "> 50 µM"),
    ("CN1CC(=O)N2[C@H](c3ccc4c(c3)OCO4)c3[nH]c4ccccc4c3C[C@@H]2C1=O [Compound I, tadalafil, reference compound]", "PDE2A (Homo sapiens, UniProt O00408)", "> 50 µM"),
]

Query: Fill in: IC50 on PDE2A (Homo sapiens, UniProt O00408), entry CN1CC(=O)N2[C@H](c3ccc(Br)cc3)c3[nH]c4ccccc4c3C[C@H]2C1=O [Compound 28]
Response: > 50 µM

---

# testedSystem: UniProt O00408
# measurementProtocol: PDE2A inhibition, IMAP fluorescence polarization assay
# Assay type: biochemical
# testConditions: read-out: PDE2A inhibition IC50 μM; substrate cAMP
quantityMeasured: IC50

Query: Name the recorded IC50 of the compound listed here: CCCCN1CC(=O)N2[C@H](c3ccc(Br)cc3)c3[nH]c4ccccc4c3C[C@@H]2C1=O
Response: > 50 µM

---

# testedSystem: PDE9A (Homo sapiens, UniProt O76083)
# Sequence (O76083 whole entry): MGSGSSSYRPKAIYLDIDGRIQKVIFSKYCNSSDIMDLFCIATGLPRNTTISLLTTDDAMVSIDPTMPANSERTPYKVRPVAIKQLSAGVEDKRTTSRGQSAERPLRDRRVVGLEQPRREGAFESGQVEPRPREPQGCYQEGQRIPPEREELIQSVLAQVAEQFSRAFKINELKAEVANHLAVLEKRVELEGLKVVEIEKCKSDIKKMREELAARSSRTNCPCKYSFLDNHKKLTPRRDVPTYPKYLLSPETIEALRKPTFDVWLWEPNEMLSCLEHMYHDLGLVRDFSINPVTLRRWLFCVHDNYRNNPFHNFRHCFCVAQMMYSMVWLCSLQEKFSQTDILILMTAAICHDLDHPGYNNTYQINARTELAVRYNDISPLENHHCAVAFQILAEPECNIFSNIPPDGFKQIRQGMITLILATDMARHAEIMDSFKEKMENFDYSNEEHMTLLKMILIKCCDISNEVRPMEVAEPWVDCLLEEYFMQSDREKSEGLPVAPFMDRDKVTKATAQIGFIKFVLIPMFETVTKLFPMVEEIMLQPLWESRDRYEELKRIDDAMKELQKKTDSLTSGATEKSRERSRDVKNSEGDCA
# measurementProtocol: PDE9A inhibition, IMAP fluorescence polarization assay
# Assay type: biochemical
pIC50: −log10 of the molar value.
molecules and their reported pIC50

Solved entries (count: 4):
# molecule, testedSystem, pIC50
measured = [
    ("CN1CC(=O)N2[C@H](c3ccc(Br)cc3)c3[nH]c4ccccc4c3C[C@H]2C1=O [Compound 28]", "PDE9A (Homo sapiens, UniProt O76083)", "< 4.30"),
    ("CN1CC(=O)N2[C@H](c3ccc4c(c3)OCO4)c3[nH]c4ccccc4c3C[C@@H]2C1=O [Compound I, tadalafil, reference compound]", "PDE9A (Homo sapiens, UniProt O76083)", "< 4.30"),
    ("CCN1C(=O)[C@@H]2Cc3c([nH]c4ccccc34)[C@@H](c3ccc(Br)cc3)N2C1=O [Compound 8]", "PDE9A (Homo sapiens, UniProt O76083)", "< 4.30"),
    ("CCN1CC(=O)N2[C@H](c3ccc(Br)cc3)c3[nH]c4ccccc4c3C[C@@H]2C1=O [Compound 29]", "PDE9A (Homo sapiens, UniProt O76083)", "< 4.30"),
]

Query: Please supply the value of reported pIC50 for the item CN1CC(=O)N2[C@H](c3ccc(Br)cc3)c3[nH]c4ccccc4c3C[C@@H]2C1=O [Compound 25]
Response: < 4.30

---

# testedSystem: human PDE5 (Homo sapiens, UniProt O76074)
# measurementProtocol: PDE5 inhibition, IMAP fluorescence polarization phosphodiesterase assay
# Format: biochemical
quantityMeasured: pIC50
Lab note — pIC50 values are minus log10 of concentrations in M.

Examples with their reported pIC50 follow.
# compound, quantityMeasured, dataValue
records = [
    ("CCC(C)N1C(=O)[C@@H]2Cc3c([nH]c4ccccc34)[C@H](c3ccc(Br)cc3)N2C1=O (stereo partly drawn)", "pIC50", 5.48),
    ("CC(C)(C)N1C(=O)[C@@H]2Cc3c([nH]c4ccccc34)[C@@H](c3ccc(Br)cc3)N2C1=O", "pIC50", 6.57),
    ("CN1CC(=O)N2[C@H](c3ccc(Br)cc3)c3[nH]c4ccccc4c3C[C@@H]2C1=O", "pIC50", 7.72),
    ("CCCCN1CC(=O)N2[C@@H](c3ccc(Br)cc3)c3[nH]c4ccccc4c3C[C@H]2C1=O", "pIC50", 5.23),
    ("CCC(C)N1C(=O)[C@@H]2Cc3c([nH]c4ccccc34)[C@@H](c3ccc(Br)cc3)N2C1=O (stereo partly drawn)", "pIC50", 6.82),
]

Query: Tell me measured pIC50 for CCN1CC(=O)N2[C@@H](c3ccc(Br)cc3)c3[nH]c4ccccc4c3C[C@@H]2C1=O please.
Response: 5.72

Query: Specify pIC50 for CN1CC(=O)N2[C@@H](c3ccc(Br)cc3)c3[nH]c4ccccc4c3C[C@@H]2C1=O and stop.
Response: 5.18

Query: Answer with the recorded pIC50 for the compound listed here: CC(C)(C)N1C(=O)[C@H]2Cc3c([nH]c4ccccc34)[C@H](c3ccc(Br)cc3)N2C1=O
Response: 5.66

Value source: paper PMC4994520
